tested on: NCI-H226 lung; assay: NCI tumour cell line growth inhibition, 48 h; in the data active = GI50 below about 0.43 µM; inactive = the rest
Your answer must be one of the following: active, inactive

CCOC(=O)N(O)c1ccc(/C=C/c2ccccc2)cc1 = active
CCSc1nc(N)c2cnn(CC)c2n1 = inactive
COc1ccc2c(c1)C=CC1C2CC[C@]2(C)C(NC(=O)/C=C/c3ccc(O)c(O)c3)CCC12 (stereo partly specified) = inactive
N=C(N)c1ccc(-c2ccc(-c3ccc(Cl)cc3Cl)s2)nc1 = inactive

For `CC[C@@H](C(=O)[C@@H](C)[C@@H](O)[C@H](C)[C@@H]1O[C@@H]([C@@H](CC)C(=O)O)CC[C@@H]1C)[C@H]1O[C@]2(C=C[C@@H](O)[C@]3(CC[C@@](C)([C@H]4CC[C@](O)(CC)[C@H](C)O4)O3)O2)[C@H](C)C[C@@H]1C` , which call appears in the assay record?
inactive

For `N#Cc1cc2c(cc1Cl)SC(=Nc1ccccc1)N(S(=O)(=O)c1ccc(Br)s1)S2(=O)=O` , which call appears in the assay record?
inactive

For `N=C1C=C(N)C(=O)c2ccccc21` , which call appears in the assay record?
active

For `CN(C)CCOc1ccc2c(c1)C(=O)/C(=C\c1ncc([N+](=O)[O-])n1C)C2` , which call appears in the assay record?
inactive

For `C1CC[N-]CC1.CC(=N\O)/C(C)=N/O.CC(=N\O)/C(C)=N/O.C[CH-]C(C)O.[Co+2]` , which call appears in the assay record?
inactive

For `Cc1c2ccccc2c(C)n2c1nc1cc(Cl)c(Cl)cc12` , which call appears in the assay record?
inactive

For `COc1cc2c(=O)n(CC3CCCCC3)c3c4cc[nH]c4ncc3c2cc1OC` , which call appears in the assay record?
active

---

Each item that follows carries a reported TGI.
tested on: DU-145 prostate; test: NCI tumour cell line growth inhibition, 48 h

Some compounds with recorded TGI:
C[C@H]1CCC2C(OC(=O)[C@@H]2CN(C)C)[C@]2(C)C(=O)C=CC12O (stereo partly specified) = 23.2 µM
Cn1cc(-c2csc(-c3cn(C(=O)OC(C)(C)C)c4ccccc34)n2)c2cccnc21 = 21.6 µM
O=C(Cn1c(=O)oc2ccc(C(=O)c3cccc(Cl)c3)cc21)c1ccccc1 = > 100 µM
Cn1cccc1-c1cc(-c2ccccc2)nc(N)c1C#N = > 100 µM
CC(C)=CCC[C@@H](C)C1=C(O)C(Nc2ccccc2)=C(C)C(=O)C1=O = > 74.2 µM
CCCCCCCCc1cc(O)ccc1O = 52.5 µM

Tell me the measured TGI of CNC(=O)C1OC(n2cnc3c(NCc4cccc(I)c4)nc(Cl)nc32)C(O)C1O (stereo unspecified) , please.
50.4 µM

Tell me the measured TGI of O=C1CC2OCC=C3CN4CCC5(C(=O)O)C(N1)C2C3CC45 (stereo unspecified) , please.
> 100 µM

---

test system: A498 renal; test: NCI tumour cell line growth inhibition, 48 h; in the data active means GI50 below about 0.43 µM; inactive means the rest
Your answer must be one of the following: y for active, n for inactive

Worked set:
COC(=O)[C@@H](C)C[C@H](Cc1ccccc1)NC(=O)c1csc([C@@H](C[C@H](C(C)C)N(C)C(=O)[C@@H](NC(=O)[C@H]2CCCCN2C)C(C(F)(F)F)C(F)(F)F)OC(C)=O)n1 = y
CCCCCCCCc1cc(O)ccc1O = n

For `Cn1cc(-c2csc(-c3cn(C(=O)OC(C)(C)C)c4ccccc34)n2)c2cccnc21` , which call appears in the assay record?
n

For `C=C(CN1CCN(c2ccc(F)c(Cl)c2)CC1)c1ccc(C(=O)Nc2ccccc2N)cc1` , which call appears in the assay record?
n

---

Each item that follows carries a reported TGI.
test system: MDA-N; assay: NCI tumour cell line growth inhibition, 48 h

Tell me the measured TGI of Fc1ccc2c(c1)nc1n2C(c2c(F)cccc2F)SC1 (stereo not given) , please.
> 100 µM

Tell me the measured TGI of `O=NNc1c[nH]c(=O)[nH]c1=O` , please.
> 100 µM

Tell me the measured TGI of `CCCCCCCCCCOc1ccc(N=Nc2nnc(-c3ccc(OCCCCC)cc3)s2)cc1` , please.
> 100 µM

Tell me the measured TGI of CC1CN=C(c2ccc(CN3CCC(CCCC4CCN(Cc5ccc(C6=NCC(C)N6)cc5)CC4)CC3)cc2)N1 (stereo not given) , please.
38.8 µM

---

test system: SR leukemia; test: NCI tumour cell line growth inhibition, 48 h
assay-readout: TGI

Some compounds with recorded TGI:
N#Cc1c(N2CCCC2)nsc1Nc1ccccc1 = > 100 µM
Cc1c(Cl)cccc1NC(=O)C(=O)c1c(O)c2ccc(O)cc2oc1=O = > 100 µM
COC(=O)c1cc(C)[nH]c2c(C)cc3nc4ccccc4c3c12 = 58.2 µM
C=C1CC(O)C2C(=C)C(=O)OC2C2C(C)C(=O)CC12 (centres undefined) = 53.2 µM
ClC1=C(Cl)C2OC3C=CCC3OC2C(Cl)=C1Cl (centres undefined) = > 100 µM

Tell me the measured TGI of CCCCCCCCCCCCCCCCCCNc1nc(=O)n(C2CC(OP(=O)(O)OCC3OC(n4cc(F)c(=O)[nH]c4=O)CC3O)C(CO)O2)cc1F (centres undefined) , please.
35.1 µM

Tell me the measured TGI of `Nc1ccc(C(=O)O)cc1` , please.
> 100 µM

Tell me the measured TGI of `COc1cc2c(=O)n(CC3CCCCC3)c3c4cc[nH]c4ncc3c2cc1OC` , please.
> 50 µM

Tell me the measured TGI of `CC(=O)[O][Hg][c]1s[c]([Hg][O]C(C)=O)[c]([Hg][O]C(C)=O)[c]1[Hg][O]C(C)=O` , please.
> 100 µM

---

Each item that follows carries a reported TGI.
test system: SK-MEL-2 melanoma; assay: NCI tumour cell line growth inhibition, 48 h
Please reply with the bare figure in µM and do not write the unit itself.

Some compounds with recorded TGI:
CC/C(C)=C1\CCC(CN(C)C)C1=O (stereo unspecified) = 32.5
O=C(NNc1nc(-c2ccccc2)cs1)Nc1ccccc1 = 44.6
N#Cc1cc2c(cc1Cl)SC(=Nc1ccccc1)N(S(=O)(=O)c1ccc(Br)s1)S2(=O)=O = 37.8

Pending compound:
Tell me the measured TGI of COC(=O)C(/C(=N\O)C(=O)Nc1ccc(Br)cc1)c1nc2ccccc2[nH]c1=O (stereo unspecified) , please.
49.2

---

system: SK-MEL-5 melanoma; assay: NCI tumour cell line growth inhibition, 48 h
assay-readout: TGI

Some molecules with recorded TGI:
C=Cc1cc(OC)c2c(c1)c(=O)oc1c2cc(OC)c2c(O)ccc(C3OC(C(C)O)C(O)C3O)c21 (stereo not drawn) = 0.0555 µM
CCc1n[nH]c(=O)[nH]1 = > 100 µM

State its TGI on SK-MEL-5 melanoma: `O=C1C(=Cc2ccc(F)cc2)C(=O)c2ccccc21`
> 100 µM

---

tested on: SN12C renal; experiment: NCI tumour cell line growth inhibition, 48 h
Each item that follows carries a reported TGI.

Some compounds with recorded TGI:
NC1=Nc2ccccc2Sc2ccccc21 = > 100 µM
C=C1C(=O)OC2(C)CCC1CC1OC1(C)CCC=C(C)CCC2O (stereo not given) = > 100 µM
COc1cc2nc(-c3cccs3)nc(N3C(c4cc(OC)c(OC)c(OC)c4)=NNC(=O)c4ccccc43)c2cc1OC = 51.3 µM
Cc1cc(S(=O)(=O)Nc2n[nH]c(Nc3ccccc3)n2)c(SSc2cc(Cl)c(C)cc2S(=O)(=O)Nc2n[nH]c(Nc3ccccc3)n2)cc1Cl = > 100 µM
COc1ccc2c(c1)C=CC1C2CC[C@]2(C)C(NC(=O)/C=C/c3ccc(O)c(O)c3)CCC12 (stereo not given in full) = 32.2 µM
O=NNc1c[nH]c(=O)[nH]c1=O = > 100 µM
NC1=C(O)C(=O)C(c2c[nH]c3ccc(OCc4ccccc4)cc23)O1 (stereo not given) = > 100 µM
COc1ccc(/C=C2/CSC/C(=C/c3ccc(OC)c(OC)c3)C2=O)cc1OC = 4.13 µM

Tell me the measured TGI of `Cn1c2ccccc2c2c3c(c4c5ccccc5n(C)c4c21)C(=O)N(c1ccccc1)C3=O` , please.
> 100 µM

Tell me the measured TGI of Fc1ccc2c(c1)nc1n2C(c2c(F)cccc2F)SC1 (stereo not given) , please.
> 100 µM

---

tested on: SK-MEL-2 melanoma; assay: NCI tumour cell line growth inhibition, 48 h
assay-readout: GI50

Some compounds with recorded GI50:
Cc1c2ccccc2c(C)n2c1nc1cc(Cl)c(Cl)cc12 = > 100 µM
O=C(/C=C/c1ccc(Cl)cc1Cl)c1ccc(Cl)cc1Cl = 1.63 µM
Cn1cc(-c2csc(-c3cn(C(=O)OC(C)(C)C)c4ccccc34)n2)c2cccnc21 = 13.8 µM

Tell me the measured GI50 of `CNC(=O)c1cc(-c2ccc(F)cc2)cc(-c2ccc(S(=O)(=O)N3CCCC3)cc2)c1N` , please.
> 25 µM
